Values compiled from ChEMBL document CHEMBL1122103.

species: Mus musculus; assay: In vitro membrane transport activity in S180 ascites tumor in rodent; assay type: functional
Measure: Km (µM)
Write the value in µM as a bare number.

C#CCN(Cc1cnc2nc(N)nc(N)c2n1)c1ccc(C(=O)NC(CCC(=O)O)C(=O)O)cc1 (centres undefined) : 2.1
CCCN(Cc1cnc2nc(N)nc(N)c2n1)c1ccc(C(=O)NC(CCC(=O)O)C(=O)O)cc1 (centres undefined) : 3.5
CN(Cc1cnc2nc(N)nc(N)c2n1)c1ccc(C(=O)N[C@@H](CCC(=O)O)C(=O)O)cc1 [METHOTREXATE] : 11.4

// moving on: another record for Km
Input: Consider the compound CCCCCCCCN(Cc1cnc2nc(N)nc(N)c2n1)c1ccc(C(=O)NC(CCC(=O)O)C(=O)O)cc1 (centres undefined) and give its recorded Km.
Output: 1.8

###

biological target: Dihydrofolate reductase (Lactobacillus casei, UniProt P00381); assay: In vitro inhibition of Dihydrofolate reductase activity against Lactobacillus casei enzyme
Sequence (P00381 whole entry): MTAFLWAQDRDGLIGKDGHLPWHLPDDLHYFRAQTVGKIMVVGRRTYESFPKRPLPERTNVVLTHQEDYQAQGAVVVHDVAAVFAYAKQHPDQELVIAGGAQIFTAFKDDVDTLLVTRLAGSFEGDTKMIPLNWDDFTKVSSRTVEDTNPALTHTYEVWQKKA
Known pIC50 of a selection of molecules
In plain terms, pIC50 is the concentration in mol/L turned into minus its base-10 logarithm.

C#CCN(Cc1cnc2nc(N)nc(N)c2n1)c1ccc(C(=O)NC(CCC(=O)O)C(=O)O)cc1 (configuration not stated) : 8.00

// moving on: another record for pIC50
Input: Consider the molecule CCCCCCCCN(Cc1cnc2nc(N)nc(N)c2n1)c1ccc(C(=O)NC(CCC(=O)O)C(=O)O)cc1 (configuration not stated) and give its recorded pIC50.
Output: 7.92

###

Known Km of a selection of molecules
organism: Mus musculus; experiment: In vitro membrane transport activity in neoplastic epithelial cells of rodent gut; format: functional, cell-based; conditions: Epithelial cell
Write the value in µM as a bare number.

CCCN(Cc1cnc2nc(N)nc(N)c2n1)c1ccc(C(=O)NC(CCC(=O)O)C(=O)O)cc1 (centres undefined) : 422
CCCCCCCCN(Cc1cnc2nc(N)nc(N)c2n1)c1ccc(C(=O)NC(CCC(=O)O)C(=O)O)cc1 (centres undefined) : 1290
C#CCN(Cc1cnc2nc(N)nc(N)c2n1)c1ccc(C(=O)NC(CCC(=O)O)C(=O)O)cc1 (centres undefined) : 385

// moving on: another record for Km
Input: Consider the molecule CN(Cc1cnc2nc(N)nc(N)c2n1)c1ccc(C(=O)N[C@@H](CCC(=O)O)C(=O)O)cc1 [METHOTREXATE] and give its recorded Km.
Output: 339

###

Known IC50 of a selection of compounds
system: Lacticaseibacillus casei; test: In vitro antibacterial activity against Lactobacillus casei (ATCC 7469); type: functional, organism-based
In your response, the unit should come after the numeric value.

CN(Cc1cnc2nc(N)nc(N)c2n1)c1ccc(C(=O)N[C@@H](CCC(=O)O)C(=O)O)cc1 [METHOTREXATE] : 13 nM
C#CCN(Cc1cnc2nc(N)nc(N)c2n1)c1ccc(C(=O)NC(CCC(=O)O)C(=O)O)cc1 (stereo not drawn) : 14 nM

// moving on: another record for IC50
Input: Consider the compound CCCCCCCCN(Cc1cnc2nc(N)nc(N)c2n1)c1ccc(C(=O)NC(CCC(=O)O)C(=O)O)cc1 (stereo not drawn) and give its recorded IC50.
Output: 17 nM

###

tested on: L1210; assay: In vitro membrane transport activity in L1210 cells in rodent; assay type: functional, Mus musculus
Known k of a selection of molecules
Write the value in min⁻¹ as a bare number.

In the examples that follow, each entry is paired with its recorded k.
CCCN(Cc1cnc2nc(N)nc(N)c2n1)c1ccc(C(=O)NC(CCC(=O)O)C(=O)O)cc1 (stereo not given) : 0.26
C#CCN(Cc1cnc2nc(N)nc(N)c2n1)c1ccc(C(=O)NC(CCC(=O)O)C(=O)O)cc1 (stereo not given) : 0.26
CN(Cc1cnc2nc(N)nc(N)c2n1)c1ccc(C(=O)N[C@@H](CCC(=O)O)C(=O)O)cc1 [METHOTREXATE] : 0.23
CCCCCCCCN(Cc1cnc2nc(N)nc(N)c2n1)c1ccc(C(=O)NC(CCC(=O)O)C(=O)O)cc1 (stereo not given) : 0.89

// moving on: another record for k
Input: Consider the molecule Nc1nc(N)c2nc(CNc3ccc(C(=O)N[C@@H](CCC(=O)O)C(=O)O)cc3)cnc2n1 [AMINOPTERIN] and give its recorded k.
Output: 0.21

###

Known IC50 of a selection of compounds
test system: Lacticaseibacillus casei; test: In vitro antibacterial activity against MTX-resistance Lactobacillus casei; format: functional, organism-based

In the examples that follow, each entry is paired with its recorded IC50.
CCCCCCCCN(Cc1cnc2nc(N)nc(N)c2n1)c1ccc(C(=O)NC(CCC(=O)O)C(=O)O)cc1 (stereo not drawn) : > 10 mM
C#CCN(Cc1cnc2nc(N)nc(N)c2n1)c1ccc(C(=O)NC(CCC(=O)O)C(=O)O)cc1 (stereo not drawn) : > 10 mM

// moving on: another record for IC50
Input: Consider the compound CN(Cc1cnc2nc(N)nc(N)c2n1)c1ccc(C(=O)N[C@@H](CCC(=O)O)C(=O)O)cc1 [METHOTREXATE] and give its recorded IC50.
Output: > 10 mM

###

system: L1210; assay: In vitro inhibition of L1210 cell growth in rodent neoplastic cells; type: functional, cell-based; conditions: Mus musculus
Measure: IC50 (nM)
Write the value in nM as a bare number.

In the examples that follow, each entry is paired with its recorded IC50.
Nc1nc(N)c2nc(CNc3ccc(C(=O)N[C@@H](CCC(=O)O)C(=O)O)cc3)cnc2n1 : 1.2
CCCCCCCCN(Cc1cnc2nc(N)nc(N)c2n1)c1ccc(C(=O)NC(CCC(=O)O)C(=O)O)cc1 (centres undefined) : 217
CCCN(Cc1cnc2nc(N)nc(N)c2n1)c1ccc(C(=O)NC(CCC(=O)O)C(=O)O)cc1 (centres undefined) : 2.2

// moving on: another record for IC50
Input: Consider the molecule C#CCN(Cc1cnc2nc(N)nc(N)c2n1)c1ccc(C(=O)NC(CCC(=O)O)C(=O)O)cc1 (centres undefined) and give its recorded IC50.
Output: 1.4

###

molecular target: Dihydrofolate reductase (Mus musculus, UniProt P00375); test: In vitro inhibitory activity against L1210 dihydrofolate reductase in rodent neoplastic cells
Sequence (P00375 whole entry): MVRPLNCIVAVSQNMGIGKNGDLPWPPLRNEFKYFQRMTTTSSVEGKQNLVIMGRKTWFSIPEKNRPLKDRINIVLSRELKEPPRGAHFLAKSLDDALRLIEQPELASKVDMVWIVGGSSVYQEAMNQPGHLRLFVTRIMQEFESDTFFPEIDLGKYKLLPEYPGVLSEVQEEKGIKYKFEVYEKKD
Measure: pKi
In plain terms, pKi is the concentration in mol/L turned into minus its base-10 logarithm.

In the examples that follow, each entry is paired with its recorded pKi.
C#CCN(Cc1cnc2nc(N)nc(N)c2n1)c1ccc(C(=O)NC(CCC(=O)O)C(=O)O)cc1 (centres undefined) : 9.30
Nc1nc(N)c2nc(CNc3ccc(C(=O)N[C@@H](CCC(=O)O)C(=O)O)cc3)cnc2n1 [AMINOPTERIN] : 11.40
CCCCCCCCN(Cc1cnc2nc(N)nc(N)c2n1)c1ccc(C(=O)NC(CCC(=O)O)C(=O)O)cc1 (centres undefined) : 7.76

Input: Consider the compound CCCN(Cc1cnc2nc(N)nc(N)c2n1)c1ccc(C(=O)NC(CCC(=O)O)C(=O)O)cc1 (centres undefined) and give its recorded pKi.
Output: 11.52
